- TARGET_UNDER_TEST: S1P3 (Homo sapiens)
- Sequence (Q99500 whole entry): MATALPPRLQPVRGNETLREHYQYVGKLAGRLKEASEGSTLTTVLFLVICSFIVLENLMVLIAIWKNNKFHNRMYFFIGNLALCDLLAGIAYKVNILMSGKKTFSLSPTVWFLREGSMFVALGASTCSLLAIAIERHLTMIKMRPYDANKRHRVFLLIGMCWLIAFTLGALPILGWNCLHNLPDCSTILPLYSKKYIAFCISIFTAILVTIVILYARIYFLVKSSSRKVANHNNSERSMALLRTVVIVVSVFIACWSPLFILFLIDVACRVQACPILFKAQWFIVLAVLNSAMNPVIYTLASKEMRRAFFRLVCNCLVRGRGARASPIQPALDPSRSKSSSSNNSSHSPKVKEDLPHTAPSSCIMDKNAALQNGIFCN
- METHOD_DESCRIPTION: Specificity over other S1P receptors: S1P3-Gα15 NFAT-bla HEK293T
- TEST_PARAMETERS: without Forskolin, read-out: S1P3 agonist value (EC50)
pEC50: −log10 of the molar value.
For each entry below, report its pEC50 value.

[Q] Let me know recorded pEC50 for `CC(C)Oc1ccc(-c2nnc(-c3cccc4c3CC[C@H]4NC(=O)N3CC[C@@H](N(C)C)C3)s2)cc1C#N` , thanks.
[A] < 5.00

[Q] Let me know recorded pEC50 for `CC(C)Oc1ccc(-c2ncc(-c3cccc4c3CC[C@H]4NS(N)(=O)=O)s2)cc1C#N` , thanks.
[A] < 5.00

[Q] Let me know recorded pEC50 for `CC(C)Oc1ccc(-c2ncc(-c3cccc4c3CC[C@H]4NC(=O)N3CCCC3)s2)cc1C#N` , thanks.
[A] < 5.00

[Q] Let me know recorded pEC50 for CC(C)Oc1ccc(-c2nnc(-c3cccc4c3CCC4NS(=O)(=O)CCO)s2)cc1C#N (stereo in doubt) , thanks.
[A] < 5.00

[Q] Let me know recorded pEC50 for CC(C)Oc1ccc(-c2nnc(-c3cccc4c3CCC4NS(=O)(=O)CC(=O)N(C)C)s2)cc1C#N (stereo in doubt) , thanks.
[A] < 5.00

###

- TARGET_UNDER_TEST: S1P2 (Homo sapiens)
- Construct: expressed in transfected cells; host or cells: CRE-bla CHOK1
- Sequence (O95136 whole entry, species assumed): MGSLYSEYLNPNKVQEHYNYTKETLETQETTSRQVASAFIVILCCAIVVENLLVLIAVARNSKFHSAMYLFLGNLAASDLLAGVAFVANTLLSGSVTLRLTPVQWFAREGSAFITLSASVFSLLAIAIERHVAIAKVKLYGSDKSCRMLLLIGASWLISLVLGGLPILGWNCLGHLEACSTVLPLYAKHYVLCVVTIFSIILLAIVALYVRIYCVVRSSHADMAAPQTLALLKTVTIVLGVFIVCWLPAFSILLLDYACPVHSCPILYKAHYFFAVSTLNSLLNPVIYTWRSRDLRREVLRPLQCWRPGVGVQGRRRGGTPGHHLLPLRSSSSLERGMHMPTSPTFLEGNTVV
- METHOD_DESCRIPTION: Specificity over other S1P receptors: S1P2 CRE-bla CHOK1
- Format: cell-based
- TEST_PARAMETERS: S1P2 CRE-bla CHOK1, without Forskolin; read-out: S1P2 agonist value (EC50)
pEC50: −log10 of the molar value.
For each entry below, report its pEC50 value.

[Q] Let me know recorded pEC50 for CC(C)Oc1ccc(-c2nnc(-c3cccc4c3CCC4NS(=O)(=O)CCO)s2)cc1C#N (stereo in doubt) , thanks.
[A] < 5.00

[Q] Let me know recorded pEC50 for CC(C)Oc1ccc(-c2nnc(-c3cccc4c3CCC4NS(=O)(=O)CC(=O)N(C)C)s2)cc1C#N (stereo in doubt) , thanks.
[A] < 5.00

[Q] Let me know recorded pEC50 for `CC(C)Oc1ccc(-c2nnc(-c3cccc4c3CC[C@H]4NC(=O)N3CCOCC3)s2)cc1C#N` , thanks.
[A] < 5.00

[Q] Let me know recorded pEC50 for `CC(C)Oc1ccc(-c2ncc(-c3cccc4c3CC[C@H]4NS(N)(=O)=O)s2)cc1C#N` , thanks.
[A] 5.07

###

- TARGET_UNDER_TEST: S1P1/EDG1 (Homo sapiens, UniProt P21453)
- Sequence (P21453 whole entry): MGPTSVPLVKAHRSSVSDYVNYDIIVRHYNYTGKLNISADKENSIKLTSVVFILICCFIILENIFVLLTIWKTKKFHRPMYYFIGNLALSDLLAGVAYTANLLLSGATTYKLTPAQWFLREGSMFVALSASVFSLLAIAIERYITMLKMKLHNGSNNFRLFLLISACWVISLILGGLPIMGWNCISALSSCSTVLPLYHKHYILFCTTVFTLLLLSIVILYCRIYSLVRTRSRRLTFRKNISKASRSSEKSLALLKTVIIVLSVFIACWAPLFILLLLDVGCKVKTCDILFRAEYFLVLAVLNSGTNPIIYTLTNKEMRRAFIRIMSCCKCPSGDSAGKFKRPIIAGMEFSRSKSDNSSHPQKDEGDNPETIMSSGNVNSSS
- METHOD_DESCRIPTION: S1P1 CRE-bla CHOK1 reporter assay, inhibition of Forskolin induced cAMP
- Assay type: cell-based
- TEST_PARAMETERS: agonist activity range; S1P1 CRE-bla CHOK1 cells, 2 μM Forskolin; read-out: S1P1 ACTIVITY
pEC50: −log10 of the molar value.
For each entry below, report its pEC50 value.

[Q] Let me know recorded pEC50 for CC(C)Oc1ccc(-c2ncc(-c3cccc4c3CC[C@H]4NC(=O)N3CCC[C@H](O)C3)s2)cc1C#N [Compound 199] , thanks.
[A] 9.30 to 10.30

[Q] Let me know recorded pEC50 for `CC(C)Oc1ccc(-c2ncc(-c3cccc4c3CC[C@H]4NCc3ncc[nH]3)s2)cc1C#N` , thanks.
[A] 8.30 to 9.30

[Q] Let me know recorded pEC50 for `CC(C)Oc1ccc(-c2ncc(-c3cccc4c3CC[C@H]4NS(=O)(=O)CCN3CCC(O)CC3)s2)cc1C#N` , thanks.
[A] 8.30 to 9.30

###

- TARGET_UNDER_TEST: S1P1/EDG1 (Homo sapiens, UniProt P21453)
- METHOD_DESCRIPTION: S1P1 CRE-bla CHOK1 reporter assay, inhibition of Forskolin induced cAMP
- Type: cell-based
- TEST_PARAMETERS: agonist activity range; S1P1 CRE-bla CHOK1 cells, 2 μM Forskolin; read-out: S1P1 ACTIVITY
pEC50: −log10 of the molar value.
MEASURED_PARAMETER: pEC50

[Q] Let me know recorded pEC50 for COC(=O)N[C@@H]1CCc2c(-c3cnc(-c4ccc(OC(C)C)c(C#N)c4)s3)cccc21 [Compound 89] , thanks.
[A] 8.30 to 9.30

[Q] Let me know recorded pEC50 for CC(C)Oc1ccc(-c2nnc(-c3cccc4c3CCC[C@H]4NC(=O)[C@H](N)CO)s2)cc1C#N [Compound 247] , thanks.
[A] 8.30 to 9.30

[Q] Let me know recorded pEC50 for CC(C)Oc1ccc(-c2nnc(-c3cccc4c3CCC[C@@H]4NC(=O)c3ccncc3)s2)cc1C#N [Compound 241] , thanks.
[A] 8.30 to 9.30

[Q] Let me know recorded pEC50 for CC(C)Oc1ccc(-c2nnc(-c3cccc4c3CCC[C@@H]4NCc3ncco3)s2)cc1C#N [Compound 268] , thanks.
[A] 8.30 to 9.30

[Q] Let me know recorded pEC50 for CNC(=O)CS(=O)(=O)N[C@@H]1CCCc2c(-c3nnc(-c4ccc(OC(C)C)c(C#N)c4)s3)cccc21 [Compound 294] , thanks.
[A] 9.30 to 10.30

[Q] Let me know recorded pEC50 for CC(C)Oc1ccc(-c2nnc(-c3cccc4c3CC[C@H]4NC(=O)N3CCC(O)CC3)s2)cc1C#N [Compound 62] , thanks.
[A] 8.30 to 9.30

[Q] Let me know recorded pEC50 for CC(C)Oc1ccc(-c2nnc(-c3cccc4c3CC[C@H]4NC(=O)CN)s2)cc1C#N [Compound 9] , thanks.
[A] 9.30 to 10.30

###

- TARGET_UNDER_TEST: S1P1/EDG1 (Homo sapiens)
- METHOD_DESCRIPTION: S1P1 CRE-bla CHOK1 reporter assay, inhibition of Forskolin induced cAMP
- Format: cell-based
- TEST_PARAMETERS: agonist activity range; S1P1 CRE-bla CHOK1 cells, 2 μM Forskolin; read-out: S1P1 ACTIVITY
Counter-ions that a name gives are not always drawn.
For each entry below, report its EC50 value.

[Q] // fetch EC50; item: CC(C)Oc1ccc(-c2nc(-c3cccc4c3CC[C@@H]4N(CCO)CCO)ns2)cc1C#N [Compound 312, hydrochloride] ; system: S1P1/EDG1 (Homo sapiens)
[A] 0.5 to 5 nM

[Q] // fetch EC50; item: `CC(C)Oc1ccc(-c2nnc(-c3cccc4c3CCC[C@@H]4NS(C)(=O)=O)s2)cc1C#N` ; system: S1P1/EDG1 (Homo sapiens)
[A] 0.05 to 0.5 nM

[Q] // fetch EC50; item: `CC(C)Oc1ccc(-c2nnc(-c3cccc4c3CCC[C@@H]4NS(N)(=O)=O)s2)cc1C#N` ; system: S1P1/EDG1 (Homo sapiens)
[A] 0.05 to 0.5 nM

[Q] // fetch EC50; item: `CC(C)Oc1ccc(-c2nnc(-c3cccc4c3CCC[C@H]4NCc3cnco3)s2)cc1C#N` ; system: S1P1/EDG1 (Homo sapiens)
[A] 0.5 to 5 nM

[Q] // fetch EC50; item: `COC(=O)CS(=O)(=O)N[C@H]1CCCc2c(-c3nnc(-c4ccc(OC(C)C)c(C#N)c4)s3)cccc21` ; system: S1P1/EDG1 (Homo sapiens)
[A] 0.5 to 5 nM

[Q] // fetch EC50; item: `CNC(=O)CN[C@@H]1CCCc2c(-c3nnc(-c4ccc(OC(C)C)c(C#N)c4)s3)cccc21` ; system: S1P1/EDG1 (Homo sapiens)
[A] 0.05 to 0.5 nM

###

- TARGET_UNDER_TEST: S1P1/EDG1 (Homo sapiens)
- METHOD_DESCRIPTION: S1P1 CRE-bla CHOK1 reporter assay, inhibition of Forskolin induced cAMP
- Type: cell-based
- TEST_PARAMETERS: agonist activity range; S1P1 CRE-bla CHOK1 cells, 2 μM Forskolin; read-out: S1P1 ACTIVITY
pEC50: −log10 of the molar value.
For each entry below, report its pEC50 value.

[Q] Let me know recorded pEC50 for `CC(C)Oc1ccc(-c2ncc(-c3cccc4c3CC[C@H]4NC(=O)N3CCC(O)CC3)s2)cc1C#N` , thanks.
[A] 8.30 to 9.30

[Q] Let me know recorded pEC50 for `CC(C)Oc1ccc(-c2nnc(-c3cccc4c3CCC[C@H]4NS(=O)(=O)C3CC3)s2)cc1C#N` , thanks.
[A] 8.30 to 9.30

[Q] Let me know recorded pEC50 for `CC(C)Oc1ccc(-c2nnc(-c3cccc4c3CCC[C@@H]4NCC(=O)O)s2)cc1C#N` , thanks.
[A] 9.30 to 10.30

[Q] Let me know recorded pEC50 for `CC(C)Oc1ccc(-c2ncc(-c3cccc4c3CC[C@H]4NC(=O)Cc3ccccc3)s2)cc1C#N` , thanks.
[A] < 8.30

[Q] Let me know recorded pEC50 for `CC(C)Oc1ccc(-c2ncc(-c3cccc4c3CC[C@H]4NCC(=O)N3CCCC3)s2)cc1C#N` , thanks.
[A] 9.30 to 10.30

[Q] Let me know recorded pEC50 for `COC(=O)CCS(=O)(=O)N[C@@H]1CCc2c(-c3cnc(-c4ccc(OC(C)C)c(C#N)c4)s3)cccc21` , thanks.
[A] 9.30 to 10.30

[Q] Let me know recorded pEC50 for `CC(C)Oc1ccc(-c2ncc(-c3cccc4c3CC[C@H]4NS(=O)(=O)CCN3CCNCC3)s2)cc1C#N` , thanks.
[A] < 8.30

[Q] Let me know recorded pEC50 for `CC(C)Oc1ccc(-c2ncc(-c3cccc4c3CC[C@H]4NCCS(C)(=O)=O)s2)cc1C#N` , thanks.
[A] 9.30 to 10.30

[Q] Let me know recorded pEC50 for `CC(C)Oc1ccc(-c2ncc(-c3cccc4c3CC[C@@H]4NS(=O)(=O)CCN3CCC[C@@H](O)C3)s2)cc1C#N` , thanks.
[A] 8.30 to 9.30

[Q] Let me know recorded pEC50 for `CC(C)Oc1ccc(-c2nnc(-c3cccc4c3CCC[C@H]4NC(=O)CN(C)C)s2)cc1C#N` , thanks.
[A] 8.30 to 9.30

[Q] Let me know recorded pEC50 for `CC(C)Oc1ccc(-c2ncc(-c3cccc4c3CC[C@H]4NS(=O)(=O)CCN3CCC[C@H](O)C3)s2)cc1C#N` , thanks.
[A] 8.30 to 9.30

[Q] Let me know recorded pEC50 for `CC(C)Oc1ccc(-c2ncc(-c3cccc4c3CC[C@H]4NC(=O)CN(C)C)s2)cc1C#N` , thanks.
[A] 8.30 to 9.30

[Q] Let me know recorded pEC50 for `CC(C)Oc1ccc(-c2nnc(-c3cccc4c3CCC[C@H]4NCC(=O)N3CCCC3)s2)cc1C#N` , thanks.
[A] 9.30 to 10.30

[Q] Let me know recorded pEC50 for `CC(C)Oc1ccc(-c2ncc(-c3cccc4c3CC[C@H]4NC(=O)N3CC[C@H](N(C)C)C3)s2)cc1C#N` , thanks.
[A] 8.30 to 9.30

[Q] Let me know recorded pEC50 for `CC(C)Oc1ccc(-c2nnc(-c3cccc4c3CCC[C@H]4NCc3c[nH]cn3)s2)cc1C#N` , thanks.
[A] < 8.30

[Q] Let me know recorded pEC50 for `CC(C)Oc1ccc(-c2ncc(-c3cccc4c3CC[C@H]4NC(=O)N3CC[C@H](O)C3)s2)cc1C#N` , thanks.
[A] 9.30 to 10.30

[Q] Let me know recorded pEC50 for `CC(C)Oc1ccc(-c2ncc(-c3cccc4c3CC[C@H]4NCCO)s2)cc1C#N` , thanks.
[A] 8.30 to 9.30

[Q] Let me know recorded pEC50 for `CC(C)Oc1ccc(-c2nnc(-c3cccc4c3CCC[C@@H]4NCc3cccnc3)s2)cc1C#N` , thanks.
[A] 8.30 to 9.30

[Q] Let me know recorded pEC50 for `CC(C)Oc1ccc(-c2ncc(-c3cccc4c3CC[C@H]4NS(=O)(=O)CCN3CCC3)s2)cc1C#N` , thanks.
[A] 8.30 to 9.30

[Q] Let me know recorded pEC50 for `CC(C)Oc1ccc(-c2nnc(-c3cccc4c3CC[C@H]4NCC(=O)O)s2)cc1C#N` , thanks.
[A] 9.30 to 10.30

[Q] Let me know recorded pEC50 for `CC(C)Oc1ccc(-c2ncc(-c3cccc4c3CC[C@H]4NCC(=O)O)s2)cc1C#N` , thanks.
[A] 9.30 to 10.30

[Q] Let me know recorded pEC50 for `CC(C)Oc1ccc(-c2nnc(-c3cccc4c3CCC[C@@H]4NCc3cnco3)s2)cc1C#N` , thanks.
[A] 8.30 to 9.30
